# subjectOfTest: T1, human insulin-like growth factor-I (human, UniProt P05019 49-118)
# T1 construct: mature; In the ELISAs it was coated as a conjugate with methylated BSA; in Biacore it was amine-coupled to a CM-5 chip; also called hIGF-I; IGF-I
# assayProtocol: SPR (Biacore 2000), hIGF-I amine-coupled on CM-5, antibody as analyte, 25 C
# Experimental: For diluting samples and as reaction buffers in measurement, HBS-EP (10 mM HEPES, 150 mM NaCl, 3 mM EDTA, 0.005% Tween 20 pH 7.4) (manufactured by Biacore) was used. Using an amine coupling kit (manufactured by Biacore), recombinant hIGF-I (manufactured by Fujisawa Pharmaceutical Co., Ltd.) and hIGF-II (manufactured by R & D) were immobilized at 18.5 pg/mm² or 26.7 pg/mm², respectively, on sensor tip CM-5 (manufactured by Biacore). […]
valueKind: Ka (M⁻¹)
Give the quantity in M⁻¹, number only.

*Q* Give its Ka value. Item: anti-hIGF CDR-grafted antibody QGAR/PLDFT (antibody, human IgG1, V domains shown, Human IgG1, kappa (pKANTEX93)) VH: EVQLVESGGGVVQPGRSLRLSCAASGFTFSNYYMTWVRQAPTKGLEWVAYISSGGGSTYYRDSVKGRFTISRDNSKNTLYLQMNSLRAEDTAVYYCTTEDYGYWFAYWGQGTLVTVSS VL: DIVMTQSPDSLAVSLGERATINCRASSSVSYMHWYQQKPGQSPKPLIYGTSKLASGVPDRFSGSGSGTSYSLTISSLQAEDVAVYYCLQRSSYPPTFGQGTKVEIK
*A* 2.31e+09

*Q* // same read-out, input: anti-hIGF CDR-grafted antibody QGAR/LV0 (antibody, human IgG1, V domains shown, Human IgG1, kappa (pKANTEX93)) VH: EVQLVESGGGVVQPGRSLRLSCAASGFTFSNYYMTWVRQAPTKGLEWVAYISSGGGSTYYRDSVKGRFTISRDNSKNTLYLQMNSLRAEDTAVYYCTTEDYGYWFAYWGQGTLVTVSS VL: DIVMTQSPDSLAVSLGERATINCRASSSVSYMHWYQQKPGQPPKLLIYGTSKLASGVPDRFSGSGSGTDFTLTISSLQAEDVAVYYCLQRSSYPPTFGQGTKVEIK
*A* 7.8e+08

*Q* // same read-out, input: anti-hIGF CDR-grafted antibody QAR/LV0 (antibody, human IgG1, V domains shown, Human IgG1, kappa (pKANTEX93); also called QAV/LV0) VH: EVQLVESGGGVVQPGRSLRLSCAASGFTFSNYYMTWVRQAPGKGLEWVAYISSGGGSTYYRDSVKGRFTISRDNSKNTLYLQMNSLRAEDTAVYYCTTEDYGYWFAYWGQGTLVTVSS VL: DIVMTQSPDSLAVSLGERATINCRASSSVSYMHWYQQKPGQPPKLLIYGTSKLASGVPDRFSGSGSGTDFTLTISSLQAEDVAVYYCLQRSSYPPTFGQGTKVEIK
*A* 1.7e+08
